Reference source for all entries: patent US5871946A

Test system: LYMPHOCYTES
Assay: Disease to normal ratio of enzyme activity, lymphocytes (Table 5)
Format: cell-based, human
Conditions: Lupus
Exercise: for every item that follows, state its recorded Ratio of disease to normal.
Lab note: jot down the number only; don't add units.

Query block: GET /values?readout=Ratio of disease to normal&system=LYMPHOCYTES&item= CC(C)[C@H](N)C(=O)N[C@@H](CCCCN)C(=O)Nc1ccc2c(c1)Oc1cc(NC(=O)[C@H](CCCCN)NC(=O)[C@@H](N)C(C)C)ccc1C21OC(=O)c2ccccc21 [VK, (Val-Lys)2 Rho 110]
Result block: 1.25

Query block: API: value(readout= Ratio of disease to normal, system= LYMPHOCYTES, query= O=C(NCC(=O)N1CCC[C@H]1C(=O)Nc1ccc2c(c1)Oc1cc(NC(=O)[C@@H]3CCCN3C(=O)CNC(=O)OCc3ccccc3)ccc1C21OC(=O)c2ccccc21)OCc1ccccc1 [Z-GP-M] )
Result block: 2.09

Query block: Provide value of Ratio of disease to normal for this record tested with LYMPHOCYTES: CC(=O)Oc1ccc2c(c1)Oc1cc(OC(C)=O)ccc1C21OC(=O)c2ccccc21 [FDA, fluorescein diacetate, reference compound]
Result block: 1.01
